experimental_setup: human, 40000 µM
Description: Solubility ratio ([HbS+drug (40 mM)]/[HbS-drug])
readout: Solubility ratio
Numbers only.

Cc1cc(C)cc(COCC(=O)O)c1; 1.315

Look at each compound and report its Solubility ratio.
1. O=C(O)COc1cccc(Cl)c1Cl
2. O=C(O)COc1ccc2c(c1)oc1ccccc12
3. Cc1ccc(OCC(=O)O)c(Br)c1
4. O=C(O)COCc1ccc(Cl)c(Cl)c1
5. O=C(O)COCc1cc(Cl)cc(Cl)c1

[1.135, 1.185, 1.189, 1.32, 1.382]

Look at each compound and report its Solubility ratio.
1. COc1cc(Cl)ccc1COCC(=O)O
2. O=C(O)COCc1ccc(I)cc1
3. O=C(O)C(CCc1ccccc1)C(=O)O
4. COc1cc(OC)cc(OCC(=O)O)c1
5. COc1ccc(COCC(=O)O)cc1

1: 1.311; 2: 1.35; 3: 1.263; 4: 1.232; 5: 1.149
